Recorded MIC50 by entry
tested on: Staphylococcus aureus EUP MRSA004; test: MIC panel of challenge pathogens (CLSI); assay type: cell-based; settings: EUPMRSA004; Staphylococcus aureus EUP MRSA004; read-out: MIC50 (50%)
experimental_endpoint: MIC50

>>> df
                                   compound        result
0  CCCCc1cccc(-c2cc(-c3nnn[nH]3)sc2Cc2ccc(Cl)cc2)c1 [DNM0606]  ≤ 0.25 µg/mL
1  CC(C)c1cc(Cl)ccc1-c1cc(C(=O)O)sc1-c1ccc(Cl)cc1C(C)C [DNM0566]  ≤ 0.25 µg/mL
2  Cc1cc(Cl)ccc1-c1cc(-c2nnn[nH]2)sc1-c1ccc(C)c2ccccc12 [DNM0576]  ≤ 0.25 µg/mL
3  CC(C)c1cc(Cl)ccc1-c1cc(-c2nnn[nH]2)sc1-c1ccc(Cl)cc1C(C)C [DNM0548]     0.5 µg/mL
4  Clc1ccc(-c2cc(-c3nnn[nH]3)sc2-c2ccc(Cl)cc2)cc1 [DNM0487]       1 µg/mL
5  Cc1cc(Cl)ccc1-c1cc(-c2nnn[nH]2)sc1-c1ccc(Cl)cc1C [DNM0488]     0.5 µg/mL
6  Cc1ccc(Cl)cc1-c1cc(-c2nnn[nH]2)sc1-c1cc(Cl)ccc1C [DNM0508]       1 µg/mL
7  Fc1ccc(-c2cc(-c3nnn[nH]3)sc2-c2ccc(F)c3ccccc23)c2ccccc12 [DNM0537]     0.5 µg/mL
8  Clc1ccc(Cc2sc(-c3nnn[nH]3)cc2-c2cccc(CC3CCCC3)c2)cc1 [DNM0610]  ≤ 0.25 µg/mL
